EXPERIMENTAL TARGET: Follistatin-related protein 3 (Homo sapiens) (UniProt O95633)
Sequence (O95633 whole entry, looked up): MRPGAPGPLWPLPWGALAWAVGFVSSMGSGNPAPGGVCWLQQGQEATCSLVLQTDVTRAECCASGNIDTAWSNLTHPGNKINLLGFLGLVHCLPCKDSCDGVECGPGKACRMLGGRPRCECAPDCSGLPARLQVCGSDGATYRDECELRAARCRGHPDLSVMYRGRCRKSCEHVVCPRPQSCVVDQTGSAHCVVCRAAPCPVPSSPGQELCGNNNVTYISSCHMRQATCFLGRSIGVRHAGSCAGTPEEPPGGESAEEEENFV
ASSAY PROCEDURE: FSTL3 binders on small-molecule microarrays, primary screen, biochemical, small-molecule microarray, 635 nm fluorescence (AID 1105);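 further: score merges emission near 667 nm and signal to noise per printed spot across three slides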
CONDITION PARAMETERS: FSTL3 binding, higher = more signal
Returns one of Condition met or Condition not met; Condition met when composite z-score is >= 0.6.

Here are 3 compounds together with their reported answers.
{"columns": ["COMPOUND", "EXPERIMENTAL TARGET", "ASSIGNED LABEL"],
 "data": [
  ["C=CCC(OC(C)=O)[C@@H]1[C@@H](N(Cc2ccc(-c3ccccc3)cc2)C(=O)Cc2ccc(OC)cc2)c2cc(OCCCO)ccc2N1C(=O)c1ccc2ccccc2n1 (stereo partly drawn)", "Follistatin-related protein 3 (Homo sapiens) (UniProt O95633)", "Condition not met"],
  ["CCCNC(=O)[C@@]1(c2ccc([N+](=O)[O-])cc2)CC(=O)N(CC23CC4CC(CC(C4)C2)C3)[C@@H]1c1ccc(CO)cc1", "Follistatin-related protein 3 (Homo sapiens) (UniProt O95633)", "Condition met"],
  ["O=c1cccc(CCc2ccccc2)o1", "Follistatin-related protein 3 (Homo sapiens) (UniProt O95633)", "Condition not met"]
]}

IN: Decide: composite z-score of CN1C(=O)C2C(C1=O)C1C=C(CCCO)C2C(c2cccs2)N1C (stereo not drawn) >= 0.6?
OUT: Condition not met

IN: Now this one: C=CCNC(=O)[C@@H]1[C@H]2C(=O)O[C@H](c3ccccc3)[C@H](c3ccccc3)N2[C@H](c2ccc(O)cc2)[C@@]12C(=O)N(C(=O)OCCOC)c1ccccc12
OUT: Condition met

IN: Continue with Cc1ccc(S[C@]2(C(=O)NCC(C)C)CC(=O)N(Cc3ccccc3Cl)[C@@H]2c2ccc(CO)cc2)cc1
OUT: Condition not met

IN: Moving on to O=c1cccc(C=Cc2ccccc2)o1
OUT: Condition not met

IN: Try the compound O=C1C=CC(=O)[C@@H]2CC(COc3ccccc3)=C3[C@@H](CCc4ccccc4)OB(O)C[C@@H]3[C@H]12
OUT: Condition met
